Cited source for all entries: paper PMC5487423

Recorded measurements of Kd, one per entry
Target: T1, CCL4L1_HUMAN (Homo sapiens)
T1 chain: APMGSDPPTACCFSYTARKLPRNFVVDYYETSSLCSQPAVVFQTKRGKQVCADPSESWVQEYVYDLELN
Test: BLI
Give your result in nM as a bare value.

binder	observed_property	unit_info	test_value
P467_RHIPU, purified, C-terminal StrepII-8xHis tag (natural protein) ETGAEKSLDSDSSGEDYELWTQGCPFLVAENRTGFGTTVSCQHNCNGAIEKVPEGEPCYTIGEDGLGRMKLNLPYNCSLGECSGGVCVPNGRSDVCFKRTWEENNKAMA	Kd	nM	4.7
P983_AMBCA, purified, C-terminal StrepII-8xHis tag (natural protein) ETGEDTGTEDDFDYGNTGCPFPVLGNYKSNMTKPVGCKNKCGSGYEVLNDTTPCYVIDQKVFNNMVPLRQYSKCPLGFCENGECKPNDQAEDCYKGREEQKGGGGGSGGGGSGGASAWSHPQFEKLEHHHHHHHH	Kd	nM	2.9

Here's the next entry for you.
Request: Query Kd for P991_AMBCA, purified, C-terminal StrepII-8xHis tag (natural protein) ETGENGEGTTQPDYDNSTDYYNYEDFKCTCPAPHLNNTNGTVMKPIGCYYTCNVTRCTAPDTYPCYNLTEHQAKNLTTSPTTLCAVGNCDHGICVPNGTKELCFKAPNLEE
Response: 0.83
